Give Population Fragmented Nuclei (%) for every item shown.
# System: Fibroblast
# experiment: Multiplex assay against human fibroblast
# Format: toxicity, cell-based
# conditionInfo: 48 h, 1 µM, compound concentration 1 uM, replicate 1

>  <compound>
CN(C)C(=O)N[C@H]1CC[C@H](CCN2CCN(c3cccc(Cl)c3Cl)CC2)CC1.Cl [CARIPRAZINE HYDROCHLORIDE]

>  <Population Fragmented Nuclei (%)>
35%

$$$$
>  <compound>
O=C1NCN(c2ccccc2)C12CCN(CCCOc1ccc(F)cc1)CC2 [SPIRAMIDE]

>  <Population Fragmented Nuclei (%)>
36%

$$$$
>  <compound>
Cn1cc(-c2[nH]c3cc(NC(=O)[C@H](N)C4CCCCC4)cc4c3c2C=NNC4=O)cn1

>  <Population Fragmented Nuclei (%)>
30%

$$$$
>  <compound>
CC(C)NCC(O)COc1ccc(CCOCC2CC2)cc1.Cl (configuration not stated) [BETAXOLOL HYDROCHLORIDE]

>  <Population Fragmented Nuclei (%)>
33%

$$$$
>  <compound>
Cc1[nH]c(/C=C2\C(=O)Nc3ccc(S(=O)(=O)N(C)c4cccc(Cl)c4)cc32)c(C)c1C(=O)N1CCN(C)CC1

>  <Population Fragmented Nuclei (%)>
30%

$$$$
>  <compound>
Cc1nc(-c2ccc(-c3ccc(C(=O)N4CCc5cc6c(cc54)C4(CCN(C)CC4)CO6)cc3)c(C)c2)no1

>  <Population Fragmented Nuclei (%)>
44%

$$$$

Hey, quick one: what's Population Fragmented Nuclei (%) for each of these?
1. Cl.N#Cc1ccc2[nH]cc(CCCCN3CCN(c4ccc5oc(C(N)=O)cc5c4)CC3)c2c1 [VILAZODONE HYDROCHLORIDE]
2. CN1CCN(CCOc2cc(OC3CCOCC3)c3c(Nc4c(Cl)ccc5c4OCO5)ncnc3c2)CC1
3. C=CC(=O)Nc1ccc2ncnc(Nc3ccc(OCc4cccc(F)c4)c(Cl)c3)c2c1.Cc1ccc(S(=O)(=O)O)cc1
4. COc1ncc(-c2ccc3nccc(-c4ccnnc4)c3c2)cc1NS(=O)(=O)c1ccc(F)cc1F
5. CN1CCCC(n2nc(Cc3ccc(Cl)cc3)c3ccccc3c2=O)CC1.Cl (configuration not stated) [AZELASTINE HYDROCHLORIDE]

1: 35%; 2: 40%; 3: 34%; 4: 40%; 5: 38%

I need Population Fragmented Nuclei (%) for every entry listed below, if you could help.
1. CN(C)CC#Cc1ccc(OCCCc2sc(N3CCc4cccc(C(=O)Nc5nc6ccccc6s5)c4C3)nc2C(=O)O)c(F)c1
2. CC[C@H](C)C(=O)O[C@H]1C[C@@H](C)C=C2C=C[C@H](C)[C@H](CC[C@@H]3C[C@@H](O)CC(=O)O3)[C@H]21

1: 31%; 2: 55%
